Listed here: items and their measured IC50.
# assayedTarget: Recombinant mTOR (FRAP1) (Homo sapiens)
# Sequence (P42345 1360-2549 limits assumed): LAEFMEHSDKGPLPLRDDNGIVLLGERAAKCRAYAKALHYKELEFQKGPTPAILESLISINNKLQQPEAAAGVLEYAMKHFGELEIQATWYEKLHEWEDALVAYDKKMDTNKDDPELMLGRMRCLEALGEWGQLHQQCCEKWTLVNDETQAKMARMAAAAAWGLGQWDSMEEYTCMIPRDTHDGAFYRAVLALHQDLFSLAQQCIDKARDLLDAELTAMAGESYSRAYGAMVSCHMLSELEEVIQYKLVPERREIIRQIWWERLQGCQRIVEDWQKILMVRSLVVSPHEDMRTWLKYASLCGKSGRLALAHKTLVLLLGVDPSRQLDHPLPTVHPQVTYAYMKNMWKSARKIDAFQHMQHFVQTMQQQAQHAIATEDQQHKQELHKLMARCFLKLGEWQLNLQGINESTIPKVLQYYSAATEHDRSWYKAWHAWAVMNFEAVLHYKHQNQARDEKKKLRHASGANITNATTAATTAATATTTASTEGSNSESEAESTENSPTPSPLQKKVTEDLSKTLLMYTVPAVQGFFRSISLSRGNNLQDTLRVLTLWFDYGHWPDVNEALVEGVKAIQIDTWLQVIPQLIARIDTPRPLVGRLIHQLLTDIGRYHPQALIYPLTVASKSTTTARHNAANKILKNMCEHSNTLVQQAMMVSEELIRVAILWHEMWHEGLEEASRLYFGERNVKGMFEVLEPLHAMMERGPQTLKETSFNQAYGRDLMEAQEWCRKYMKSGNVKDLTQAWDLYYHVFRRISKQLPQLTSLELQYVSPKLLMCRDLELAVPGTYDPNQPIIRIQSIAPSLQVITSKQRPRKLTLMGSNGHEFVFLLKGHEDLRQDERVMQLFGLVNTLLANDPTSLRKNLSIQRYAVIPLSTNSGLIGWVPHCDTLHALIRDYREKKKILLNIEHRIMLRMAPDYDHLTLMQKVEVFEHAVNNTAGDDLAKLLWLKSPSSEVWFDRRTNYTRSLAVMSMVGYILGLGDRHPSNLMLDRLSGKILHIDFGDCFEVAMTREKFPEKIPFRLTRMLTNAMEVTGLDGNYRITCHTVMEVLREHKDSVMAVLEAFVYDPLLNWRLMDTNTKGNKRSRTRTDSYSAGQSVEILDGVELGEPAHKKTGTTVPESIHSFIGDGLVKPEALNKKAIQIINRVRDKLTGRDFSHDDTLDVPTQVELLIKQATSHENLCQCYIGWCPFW
# testSummary: mTOR in vitro kinase assay (TR-FRET, phosphorylation of GFP-4E-BP1)
# appliedConditions: 8 μM ATP, 400 nM GFP-4E-BP1

Below, 2 molecules whose answers are already recorded.
CN(C)C(=O)[C@H]1CC[C@H](Oc2nc(-c3cnc(N)s3)nc(N3CCO[C@H]4CCC[C@@H]43)n2)CC1	> 1000 nM
C[C@@H]1CN(c2nc(Oc3ccc(C(=O)N(C)C)cc3F)nc(-c3cnc4[nH]ccc4c3)n2)[C@@H](C)CO1	< 1000 nM

Supply recorded IC50 for CN(C)C(=O)c1ccc(Oc2nc(-c3ccc(N)nc3)nc(N3[C@@H]4CC[C@H]3COC4)n2)cc1 here. < 1000 nM

Quote IC50 reported for C[C@H]1CN(c2nc(Oc3ccc(C(=O)N(C)C)cc3F)nc(-c3ccc(N)nc3)n2)[C@@H](C)CO1 please. < 1000 nM
